The reported numbers originate from paper PMC3499988.

# TARGET_OF_ASSAY: HIV-1 YU-2 gp120 (HIV-1 (YU-2), UniProt P35961)
# TEST_PROTOCOL: SPR
READOUT_TYPE: IC50

Some solved cases for reference:
Briefly, IC50 measured for Fab m18 H96A (HCDR3) (Fab, V domains shown) VH: VQLLESGPGVVKPSETLSLTCTVSGASVNNYYWTWVRQPPGKGLEWIGNVYDSGDTNYNPSLSSRLSLSMDTSKNQFSLRLSSVTAADTATYYCARYARHFIRGPLSFDYWGRGTLVTVSS VL: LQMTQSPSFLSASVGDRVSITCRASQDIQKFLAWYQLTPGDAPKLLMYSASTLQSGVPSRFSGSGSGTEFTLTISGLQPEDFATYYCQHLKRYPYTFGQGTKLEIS : > 500 nM

Briefly, IC50 measured for Fab m18 R100aA (HCDR3) (Fab, V domains shown) VH: VQLLESGPGVVKPSETLSLTCTVSGASVNNYYWTWVRQPPGKGLEWIGNVYDSGDTNYNPSLSSRLSLSMDTSKNQFSLRLSSVTAADTATYYCARYHRHFIAGPLSFDYWGRGTLVTVSS VL: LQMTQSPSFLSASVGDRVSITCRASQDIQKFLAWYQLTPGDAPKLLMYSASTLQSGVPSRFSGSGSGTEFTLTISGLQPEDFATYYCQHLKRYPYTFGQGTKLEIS : > 500 nM

Briefly, IC50 measured for Fab m18 S56A (LCDR2) (Fab, V domains shown) VH: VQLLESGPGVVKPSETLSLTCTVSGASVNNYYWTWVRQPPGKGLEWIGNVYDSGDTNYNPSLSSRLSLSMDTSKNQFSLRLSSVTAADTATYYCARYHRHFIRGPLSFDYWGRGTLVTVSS VL: LQMTQSPSFLSASVGDRVSITCRASQDIQKFLAWYQLTPGDAPKLLMYSASTLQAGVPSRFSGSGSGTEFTLTISGLQPEDFATYYCQHLKRYPYTFGQGTKLEIS : > 500 nM

Briefly, IC50 measured for Fab m18 D53A (HCDR2) (Fab, V domains shown) VH: VQLLESGPGVVKPSETLSLTCTVSGASVNNYYWTWVRQPPGKGLEWIGNVYASGDTNYNPSLSSRLSLSMDTSKNQFSLRLSSVTAADTATYYCARYHRHFIRGPLSFDYWGRGTLVTVSS VL: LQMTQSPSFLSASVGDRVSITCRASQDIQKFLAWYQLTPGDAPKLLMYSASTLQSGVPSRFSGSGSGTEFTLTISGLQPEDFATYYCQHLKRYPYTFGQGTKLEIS : > 500 nM

***
Briefly, IC50 measured for Fab m18 Q27A (LCDR1) (Fab, V domains shown) VH: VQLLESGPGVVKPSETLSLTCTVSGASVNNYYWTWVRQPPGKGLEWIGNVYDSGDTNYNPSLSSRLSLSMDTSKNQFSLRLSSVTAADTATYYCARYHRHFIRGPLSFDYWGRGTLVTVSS VL: LQMTQSPSFLSASVGDRVSITCRASADIQKFLAWYQLTPGDAPKLLMYSASTLQSGVPSRFSGSGSGTEFTLTISGLQPEDFATYYCQHLKRYPYTFGQGTKLEIS : 54.5 nM
